tested on: Rattus norvegicus; experiment: Antihypertensive activity against DOCA-salt induced hypertension in albino rat assessed as reduction in systolic blood pressure at 10 mg/kg, po after 180 mins by tail-cuff method; format: functional; conditions: Artery, 3 h
Experimental endpoint: inhibition in vivo at 10 mg/kg (%)

> print(dat)
                                   compound        system.name           experimental.endpoint  reported.measurement
1  CC1=C(C(=O)Nc2ccc([N+](=O)[O-])cc2)C(c2cccc([N+](=O)[O-])c2)N=C(SCc2cccc(Cl)c2)N1 (stereo not drawn)  Rattus norvegicus  inhibition in vivo at 10 mg/kg                  14.9
2  CC1=C(C(=O)Nc2ccc([N+](=O)[O-])cc2)C(c2ccc(Br)cc2)N=C(SCc2ccc(Cl)cc2)N1 (stereo not drawn)  Rattus norvegicus  inhibition in vivo at 10 mg/kg                  19.1
3  CC1=C(C(=O)Nc2ccc(Br)cc2)C(c2ccc(Cl)cc2Cl)N=C(SCc2ccc(F)cc2)N1 (stereo not drawn)  Rattus norvegicus  inhibition in vivo at 10 mg/kg                  28.4
4  COc1ccc(C2N=C(SCc3cccc(Cl)c3)NC(C)=C2C(=O)Nc2ccc(F)cc2)cc1OC (stereo not drawn)  Rattus norvegicus  inhibition in vivo at 10 mg/kg                  13.4
5  COc1ccc(C2N=C(SCc3ccccc3)NC(C)=C2C(=O)Nc2ccc(Br)cc2)cc1 (stereo not drawn)  Rattus norvegicus  inhibition in vivo at 10 mg/kg                  10.3
6  CC1=C(C(=O)Nc2ccc(F)cc2)C(c2ccc([N+](=O)[O-])cc2)N=C(SCc2ccc(Cl)cc2)N1 (stereo not drawn)  Rattus norvegicus  inhibition in vivo at 10 mg/kg                  23.2
7  COc1ccc(C2N=C(SCc3ccc(Cl)cc3)NC(C)=C2C(=O)Nc2ccc(F)cc2)cc1OC (stereo not drawn)  Rattus norvegicus  inhibition in vivo at 10 mg/kg                  20.1
8  CC1=C(C(=O)Nc2ccc(F)cc2)C(c2ccc([N+](=O)[O-])cc2)N=C(SCc2ccc(F)cc2)N1 (stereo not drawn)  Rattus norvegicus  inhibition in vivo at 10 mg/kg                  20.1

---

tested on: Rattus norvegicus; experiment: Antihypertensive activity against DOCA-salt induced hypertension in albino rat assessed as reduction in systolic blood pressure at 10 mg/kg, po after 900 mins by tail-cuff method; assay type: functional; conditions: Artery, 15 h
Experimental endpoint: inhibition in vivo at 10 mg/kg

> print(dat)
                                    compound  reported.measurement
 1  CC1=C(C(=O)Nc2ccc(Br)cc2)C(c2ccc(Cl)cc2Cl)N=C(SCc2ccccc2)N1 (centres undefined)                  8.2%
 2  CC1=C(C(=O)Nc2ccc(F)cc2)C(c2ccc([N+](=O)[O-])cc2)N=C(SCc2cccc(Cl)c2)N1 (centres undefined)                 10.8%
 3  COc1ccc(C2N=C(SCc3cccc(Cl)c3)NC(C)=C2C(=O)Nc2ccc(F)cc2)cc1OC (centres undefined)                 13.3%
 4  CC1=C(C(=O)Nc2ccc([N+](=O)[O-])cc2)C(c2ccc(Br)cc2)N=C(SCc2ccc(F)cc2)N1 (centres undefined)                 22.6%
 5  COc1ccc(C2N=C(SCc3ccc(Cl)cc3)NC(C)=C2C(=O)Nc2ccc(F)cc2)cc1OC (centres undefined)                   20%
 6  CC1=C(C(=O)Nc2ccc([N+](=O)[O-])cc2)C(c2ccc(Br)cc2)N=C(SCc2ccccc2Cl)N1 (centres undefined)                  4.1%
 7  CC1=C(C(=O)Nc2ccc(F)cc2)C(c2ccc([N+](=O)[O-])cc2)N=C(SCc2ccc(Cl)cc2)N1 (centres undefined)                 16.9%
 8  CC1=C(C(=O)Nc2ccc(F)cc2)C(c2ccc([N+](=O)[O-])cc2)N=C(SCc2ccccc2Cl)N1 (centres undefined)                 11.3%
 9  COc1ccc(C2N=C(SCc3ccc(F)cc3)NC(C)=C2C(=O)Nc2ccc(Br)cc2)cc1 (centres undefined)                 15.4%
10  CC1=C(C(=O)Nc2ccc(Br)cc2)C(c2ccc(Cl)cc2Cl)N=C(SCc2cccc(Cl)c2)N1 (centres undefined)                  7.2%
11  COc1ccc(C2N=C(SCc3ccccc3Cl)NC(C)=C2C(=O)Nc2ccc(Br)cc2)cc1 (centres undefined)                  7.2%
12  CC1=C(C(=O)Nc2ccc([N+](=O)[O-])cc2)C(c2cccc([N+](=O)[O-])c2)N=C(SCc2ccc(F)cc2)N1 (centres undefined)                 15.4%
13  CC1=C(C(=O)Nc2ccc(F)cc2)C(c2ccc([N+](=O)[O-])cc2)N=C(SCc2ccccc2)N1 (centres undefined)                   21%
14  COc1ccc(C2N=C(SCc3cccc(Cl)c3)NC(C)=C2C(=O)Nc2ccc(Br)cc2)cc1 (centres undefined)                 22.6%

---

test system: Rattus norvegicus; test: Antihypertensive activity against DOCA-salt induced hypertension in albino rat assessed as reduction in systolic blood pressure at 10 mg/kg, po after 300 mins by tail-cuff method; format: functional; settings: Artery, 5 h
Decide using inhibition in vivo at 10 mg/kg: a value greater than or equal to 30% is Satisfied, a smaller one is Not satisfied.

> print(dat)
                                    compound  assigned.class
 1  COc1ccc(C2N=C(SCc3ccccc3Cl)NC(C)=C2C(=O)Nc2ccc(Br)cc2)cc1 (configuration not stated)   Not satisfied
 2  CC1=C(C(=O)Nc2ccc(F)cc2)C(c2ccc([N+](=O)[O-])cc2)N=C(SCc2ccc(Cl)cc2)N1 (configuration not stated)       Satisfied
 3  CC1=C(C(=O)Nc2ccc(Br)cc2)C(c2ccc(Cl)cc2Cl)N=C(SCc2ccc(Cl)cc2)N1 (configuration not stated)       Satisfied
 4  CC1=C(C(=O)Nc2ccc([N+](=O)[O-])cc2)C(c2cccc([N+](=O)[O-])c2)N=C(SCc2cccc(Cl)c2)N1 (configuration not stated)   Not satisfied
 5  CC1=C(C(=O)Nc2ccc(F)cc2)C(c2ccc([N+](=O)[O-])cc2)N=C(SCc2ccccc2)N1 (configuration not stated)       Satisfied
 6  CC1=C(C(=O)Nc2ccc(F)cc2)C(c2ccc([N+](=O)[O-])cc2)N=C(SCc2cccc(Cl)c2)N1 (configuration not stated)   Not satisfied
 7  CC1=C(C(=O)Nc2ccc([N+](=O)[O-])cc2)C(c2cccc([N+](=O)[O-])c2)N=C(SCc2ccc(F)cc2)N1 (configuration not stated)   Not satisfied
 8  COc1ccc(C2N=C(SCc3ccc(F)cc3)NC(C)=C2C(=O)Nc2ccc(Br)cc2)cc1 (configuration not stated)   Not satisfied
 9  COc1ccc(C2N=C(SCc3ccccc3Cl)NC(C)=C2C(=O)Nc2ccc(F)cc2)cc1OC (configuration not stated)       Satisfied
10  CC1=C(C(=O)Nc2ccc(Br)cc2)C(c2ccc(Cl)cc2Cl)N=C(SCc2cccc(Cl)c2)N1 (configuration not stated)   Not satisfied

---

# inhibition in vivo at 10 mg/kg listing for each entry below
system: Rattus norvegicus; experiment: Antihypertensive activity against DOCA-salt induced hypertension in albino rat assessed as reduction in systolic blood pressure at 10 mg/kg, po after 15 mins by tail-cuff method; type: functional; details: Artery, 0.25 h
Experimental endpoint: inhibition in vivo at 10 mg/kg

> print(dat)
                                   compound  reported.measurement
1  COc1ccc(C2N=C(SCc3ccccc3)NC(C)=C2C(=O)Nc2ccc(Br)cc2)cc1 (stereo not drawn)                    1%
2  CC1=C(C(=O)Nc2ccc([N+](=O)[O-])cc2)C(c2cccc([N+](=O)[O-])c2)N=C(SCc2ccccc2Cl)N1 (stereo not drawn)                  2.1%
3  COc1ccc(C2N=C(SCc3ccc(F)cc3)NC(C)=C2C(=O)Nc2ccc(F)cc2)cc1OC (stereo not drawn)                  3.6%

---

tested on: Rattus norvegicus; assay: Antihypertensive activity against DOCA-salt induced hypertension in albino rat assessed as reduction in systolic blood pressure at 10 mg/kg, po after 15 mins by tail-cuff method; format: functional; conditions: Artery, 0.25 h
Experimental endpoint: inhibition in vivo at 10 mg/kg (%)

> print(dat)
                                   compound           experimental.endpoint  measurement.unit  reported.measurement
1  CC1=C(C(=O)Nc2ccc(Br)cc2)C(c2ccc(Cl)cc2Cl)N=C(SCc2ccc(F)cc2)N1 (stereo not given)  inhibition in vivo at 10 mg/kg                 %                   3.6
2  CC1=C(C(=O)Nc2ccc([N+](=O)[O-])cc2)C(c2ccc(Br)cc2)N=C(SCc2cccc(Cl)c2)N1 (stereo not given)  inhibition in vivo at 10 mg/kg                 %                   2.1
3  COc1ccc(C2N=C(SCc3ccccc3Cl)NC(C)=C2C(=O)Nc2ccc(Br)cc2)cc1 (stereo not given)  inhibition in vivo at 10 mg/kg                 %                   3.1
4  CC1=C(C(=O)Nc2ccc([N+](=O)[O-])cc2)C(c2ccc(Br)cc2)N=C(SCc2ccc(Cl)cc2)N1 (stereo not given)  inhibition in vivo at 10 mg/kg                 %                   3.1
5  CC1=C(C(=O)Nc2ccc([N+](=O)[O-])cc2)C(c2ccc(Br)cc2)N=C(SCc2ccccc2)N1 (stereo not given)  inhibition in vivo at 10 mg/kg                 %                   2.1

Data origin, for the record: ChEMBL document CHEMBL1275301
